# IC50 values compiled below
# Test system: A549
# ASSAY_DETAILS: Cytotoxicity against human A549 cells by MTT assay
# Assay type: functional, cell-based
Answer as a quantity: numeral, then unit.

Query C=C(C=O)[C@@H]1CC[C@]2(CO)CC[C@]3(C)[C@H](CC[C@@H]4[C@@]5(C)CCC(=O)C(C)(C)[C@@H]5CC[C@]43C)[C@@H]12 yields IC50 of 16.4 µg/mL

Reported IC50 ( C=C(C)[C@@H]1CC[C@]2(C(=O)O)CC[C@]3(C)[C@H](CC[C@@H]4[C@@]5(C)CC[C@H](O)C(C)(C)[C@@H]5CC[C@]43C)[C@@H]12 ) = 2.8 µg/mL

Lab book: IC50 of C=C(C)[C@@H]1CC[C@]2(C(=O)O)CC[C@]3(C)[C@H](CC[C@@H]4[C@@]5(C)CC[C@@H](O)C(C)(C)[C@@H]5CC[C@]43C)[C@@H]12 [EPIBETULINIC ACID] noted as 9.7 µg/mL

IC50 reading for C=C(C)[C@@H]1CC[C@]2(CO)CC[C@]3(C)[C@H](CC[C@@H]4[C@@]5(C)CC[C@@H](O)C(C)(C)[C@@H]5CC[C@]43C)[C@@H]12 [3-EPI-BETULIN] : 15.7 µg/mL
